- system-tested: Nrg2 (UniProt P38082)
- Sequence: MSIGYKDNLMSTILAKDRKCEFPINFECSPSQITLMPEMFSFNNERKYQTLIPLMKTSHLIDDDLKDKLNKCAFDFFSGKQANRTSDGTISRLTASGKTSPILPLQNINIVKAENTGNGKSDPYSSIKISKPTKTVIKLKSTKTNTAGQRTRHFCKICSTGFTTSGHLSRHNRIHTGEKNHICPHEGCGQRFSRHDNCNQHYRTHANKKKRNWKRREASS
- assay-explanation: PBM E-score (8-mer binding enrichment) (E-score (-0.5 to 0.5)); higher = stronger / more preferred TF binding
- conditions: protein concentration: 100 nM; construct: GST-full length
Over roughly 33,000 sequences, “E-score (-0.5 to 0.5)” has its median near -8e-05; the highest 2% begin near 0.23. Many of the other results were omitted from the sample, so the highest values are more common in it than they were.
value-type: PBM E-score

Example results:
CGCAATAC: 0.231
CCTTTCCG: -0.116
CCCGCCAA: -0.175
CCCTGCGC: 0.1
CGTGCCAA: -0.033
CCCATGGG: 0.323
ACGAAGCC: -0.0825
GAGTAGGC: -0.0622
AGGCATCC: -0.161
CTTGCGAC: -0.142

Task item: Identify PBM E-score associated with the sequence GATTAGAC
Reply: 0.0407

Task item: Identify PBM E-score associated with the sequence ATACCTTC
Reply: -0.0248

Task item: Identify PBM E-score associated with the sequence AAGTAATA
Reply: -0.00088

Task item: Identify PBM E-score associated with the sequence CAAAGGCA
Reply: -0.173

Task item: Identify PBM E-score associated with the sequence AGCAATAC
Reply: 0.12
